Give measured kon for each item. Keep answers brief.
# tgt: interphotoreceptor retinoid-binding protein (IRBP) (Bos taurus, UniProt P12661)
# Sequence (P12661 23-1286): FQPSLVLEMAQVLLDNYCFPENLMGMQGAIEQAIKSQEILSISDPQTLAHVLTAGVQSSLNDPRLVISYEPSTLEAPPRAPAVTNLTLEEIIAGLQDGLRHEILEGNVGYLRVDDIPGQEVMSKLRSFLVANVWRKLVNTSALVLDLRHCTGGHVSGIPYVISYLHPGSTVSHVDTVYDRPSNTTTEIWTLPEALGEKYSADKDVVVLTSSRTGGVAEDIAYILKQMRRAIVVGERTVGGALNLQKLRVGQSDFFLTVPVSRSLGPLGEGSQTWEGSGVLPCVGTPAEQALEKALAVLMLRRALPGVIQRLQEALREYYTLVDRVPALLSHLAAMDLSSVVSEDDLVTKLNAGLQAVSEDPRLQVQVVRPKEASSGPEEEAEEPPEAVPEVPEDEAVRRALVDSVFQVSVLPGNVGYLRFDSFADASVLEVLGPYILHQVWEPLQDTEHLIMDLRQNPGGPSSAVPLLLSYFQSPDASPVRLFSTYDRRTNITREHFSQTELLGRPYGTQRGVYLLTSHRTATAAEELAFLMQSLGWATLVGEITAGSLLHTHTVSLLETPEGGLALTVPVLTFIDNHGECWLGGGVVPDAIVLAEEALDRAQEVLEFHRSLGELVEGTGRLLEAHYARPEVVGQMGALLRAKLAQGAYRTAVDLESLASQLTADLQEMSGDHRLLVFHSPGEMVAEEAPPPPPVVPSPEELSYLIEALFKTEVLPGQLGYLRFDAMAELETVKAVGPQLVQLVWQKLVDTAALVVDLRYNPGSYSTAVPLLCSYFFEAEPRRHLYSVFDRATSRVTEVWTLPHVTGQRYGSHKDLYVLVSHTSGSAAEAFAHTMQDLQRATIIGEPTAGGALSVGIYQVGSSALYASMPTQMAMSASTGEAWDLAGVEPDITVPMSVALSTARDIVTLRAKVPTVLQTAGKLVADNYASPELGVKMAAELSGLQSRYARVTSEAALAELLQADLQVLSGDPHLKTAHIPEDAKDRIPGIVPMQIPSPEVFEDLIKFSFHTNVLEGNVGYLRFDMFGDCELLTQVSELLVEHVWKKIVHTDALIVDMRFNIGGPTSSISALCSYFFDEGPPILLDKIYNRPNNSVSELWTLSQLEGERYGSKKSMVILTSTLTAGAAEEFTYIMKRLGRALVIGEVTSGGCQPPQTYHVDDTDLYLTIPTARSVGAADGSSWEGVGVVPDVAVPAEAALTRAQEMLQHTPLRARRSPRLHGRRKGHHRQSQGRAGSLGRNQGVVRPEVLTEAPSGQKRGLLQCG
# protocol.text: Surface plasmon resonance
# Parameters: species or system bovine
# settings: pH 7.4, read-out: ka, association rate constant
Answers are plain numbers, in M⁻¹ s⁻¹.

// known answers, use as guide
In [3]: df
Out[3]:
                                   compound  assay_readout  recorded_value
0             CCCCC/C=C\C/C=C\CCCCCCCC(=O)O            kon           23000
1  CC1=C(/C=C/C(C)=C/C=C/C(C)=C/C=C/C=C(C)/C=C/C=C(C)/C=C/C2=C(C)C(=O)[C@@H](O)CC2(C)C)C(C)(C)C[C@H](O)C1=O            kon           26800
2     CCCCC/C=C\C/C=C\C/C=C\C/C=C\CCCC(=O)O            kon           24000
3  CC1=C(/C=C/C(C)=C/C=C/C(C)=C/C=C/C=C(C)/C=C/C=C(C)/C=C/C2=C(C)C[C@@H](O)CC2(C)C)C(C)(C)C[C@H](O)C1            kon           33000

# ---- query compound ----
Query block: Need kon, item CC1=C(/C=C/C(C)=C/C=C/C(C)=C/C(=O)O)C(C)(C)CCC1 [all -trans -retinoic acid]
Result block: 40000
